System: U87MG
protocol: Cell viability, glioblastoma U87MG
Assay type: cell-based
conditions_used: Homo sapiens, U-87 MG; glioblastoma cell line
pIC50: −log10 of the molar value.

structure_string: O=S(=O)(c1c(F)c(F)c(F)c(F)c1F)N(Cc1ccc(F)cc1)C1CC1
pIC50: 5.54

###

Test system: ATCC3034
protocol: Cell viability, medulloblastoma ATCC3034
Format: cell-based
conditions_used: medulloblastoma cell line
Experimental: The anti-cancer efficacy of exemplary compounds of the application were assessed in vitro against different cancer cell lines. […] Afterwards, the plates were shaken for 10 seconds and florescence was recorded at 560/590 nm using a Cytation 3 spectrophotometer. IC50 values were determined using non-linear regression analysis with GraphPad Prism 6.0 (GraphPad Software Inc.). […]
pIC50: −log10 of the molar value.
This listing pairs molecules with measured pIC50.

structure_string: O=S(=O)(c1c(F)c(F)c(F)c(F)c1F)N(Cc1ccc(F)cc1)C1CC1
pIC50: 6.10
//
structure_string: O=S(=O)(c1c(F)c(F)c(F)c(F)c1F)N(Cc1ccc(Cl)cc1)C1CC1
pIC50: 6.52

###

experimental_target: hERG channel (Homo sapiens, UniProt Q12809)
Sequence (Q12809 whole entry): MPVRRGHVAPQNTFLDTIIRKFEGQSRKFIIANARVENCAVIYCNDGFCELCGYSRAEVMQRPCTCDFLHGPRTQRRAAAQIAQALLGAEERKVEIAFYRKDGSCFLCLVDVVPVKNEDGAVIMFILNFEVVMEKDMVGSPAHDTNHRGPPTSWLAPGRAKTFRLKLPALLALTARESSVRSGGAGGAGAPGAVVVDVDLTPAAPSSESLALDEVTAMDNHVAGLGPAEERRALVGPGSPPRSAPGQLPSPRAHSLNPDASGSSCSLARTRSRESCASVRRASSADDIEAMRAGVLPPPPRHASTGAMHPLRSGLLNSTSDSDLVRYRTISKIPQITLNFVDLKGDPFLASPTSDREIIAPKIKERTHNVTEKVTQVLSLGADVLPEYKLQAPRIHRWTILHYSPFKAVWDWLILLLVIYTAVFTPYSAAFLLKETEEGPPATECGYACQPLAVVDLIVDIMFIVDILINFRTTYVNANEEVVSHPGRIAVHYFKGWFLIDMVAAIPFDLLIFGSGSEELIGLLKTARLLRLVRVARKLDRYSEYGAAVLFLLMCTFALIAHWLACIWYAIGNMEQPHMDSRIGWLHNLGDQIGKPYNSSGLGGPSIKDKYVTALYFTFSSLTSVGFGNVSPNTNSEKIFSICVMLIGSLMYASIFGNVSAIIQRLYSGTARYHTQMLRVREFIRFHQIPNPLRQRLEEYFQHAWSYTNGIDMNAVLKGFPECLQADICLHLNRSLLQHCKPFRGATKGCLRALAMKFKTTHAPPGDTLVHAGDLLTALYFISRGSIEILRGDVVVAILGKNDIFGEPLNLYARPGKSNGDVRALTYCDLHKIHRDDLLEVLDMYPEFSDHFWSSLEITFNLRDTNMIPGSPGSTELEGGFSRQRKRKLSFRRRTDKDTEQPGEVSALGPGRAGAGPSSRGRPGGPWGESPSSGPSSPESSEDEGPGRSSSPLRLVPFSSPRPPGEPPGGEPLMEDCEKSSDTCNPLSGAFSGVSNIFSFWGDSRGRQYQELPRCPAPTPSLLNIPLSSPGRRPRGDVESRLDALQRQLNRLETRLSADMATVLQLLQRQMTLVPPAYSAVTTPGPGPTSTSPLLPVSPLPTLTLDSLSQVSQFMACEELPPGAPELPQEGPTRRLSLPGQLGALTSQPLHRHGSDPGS

structure_string: O=S(=O)(c1c(F)c(F)c(F)c(F)c1F)N(Cc1ccc(F)cc1)C1CC1
unit_string: µM
IC50: 17.3

###

protocol: in vitro
conditions_used: male, mouse, s9
readout: microsomal CLint at 2 μM (µL/min/mg)

compound: O=S(=O)(c1c(F)c(F)c(F)c(F)c1F)N(Cc1ccc(F)cc1)C1CC1 [Compound I-1]
unit_string: µL/min/mg
recorded_value: 0.05

###

Test system: primary human fibroblast cells (PHF)
protocol: CellTiter-Blue cell viability, PHF
Assay type: cell-based
conditions_used: non-cancerous, 72 hours
pIC50: −log10 of the molar value.

molecule: NC(=O)c1ccc(CN(C2CC2)S(=O)(=O)c2c(F)c(F)c(F)c(F)c2F)cc1 [Compound I-20]
pIC50: 5.31
//
molecule: O=S(=O)(c1c(F)c(F)c(F)c(F)c1F)N(Cc1c(F)cc(F)cc1F)C1CCC1 [Compound I-47]
pIC50: 5.43
//
molecule: CC(C)N(Cc1ccc(F)cc1F)S(=O)(=O)c1c(F)c(F)c(F)c(F)c1F [Compound I-49]
pIC50: 5.35
//
molecule: O=S(=O)(c1c(F)c(F)c(F)c(F)c1F)N(Cc1ccc(F)cc1)C1CC1 [Compound I-1]
pIC50: 5.47

###

Tested on: MV4-11
protocol: CellTiter-Blue cell viability, MV4-11
Type: cell-based
conditions_used: Homo sapiens, MV4-11; AML cell line, 72 hours
Entries annotated with measured log10 IC50
readout: log10 IC50 (log10 of the value in nM)

compound: O=S(=O)(c1c(F)c(F)c(F)c(F)c1F)N(Cc1ccccc1F)C1CC1 [Compound I-40]
log10 IC50: 2.52

compound: CC(C)N(Cc1ccc(F)cc1F)S(=O)(=O)c1c(F)c(F)c(F)c(F)c1F [Compound I-49]
log10 IC50: 3.00

compound: O=S(=O)(c1c(F)c(F)c(F)c(F)c1F)N(Cc1ccccc1)Cc1ccc(F)cc1 [Compound I-3]
log10 IC50: 2.77

compound: Nc1cccc(-c2ccc(CN(C3CC3)S(=O)(=O)c3c(F)c(F)c(F)c(F)c3F)cc2)c1 [Compound I-39]
log10 IC50: 3.18

compound: O=S(=O)(c1c(F)c(F)c(F)c(F)c1F)N(Cc1ccc(F)cc1)C1CCOC1 (stereo not drawn) [Compound I-51]
log10 IC50: 3.68

compound: Nc1ccc(-c2ccccc2CN(C2CC2)S(=O)(=O)c2c(F)c(F)c(F)c(F)c2F)cc1 [Compound I-38]
log10 IC50: 3.16

compound: COc1cc(CN(C2CC2)S(=O)(=O)c2c(F)c(F)c(F)c(F)c2F)cc(OC)c1 [Compound I-22]
log10 IC50: 3.67

compound: N#Cc1ccc(CN(C2CC2)S(=O)(=O)c2c(F)c(F)c(F)c(F)c2F)cc1 [Compound I-23]
log10 IC50: 3.00

compound: O=S(=O)(c1c(F)c(F)c(F)c(F)c1F)N(Cc1cccc(N2CCOCC2)c1)C1CC1 [Compound I-34]
log10 IC50: 2.98

compound: COC(=O)c1ccc(CN(C2CC2)S(=O)(=O)c2c(F)c(F)c(F)c(F)c2F)cc1 [Compound I-27]
log10 IC50: 3.30

compound: CC(C)N(Cc1ccccc1F)S(=O)(=O)c1c(F)c(F)c(F)c(F)c1F [Compound I-48]
log10 IC50: 3.08

compound: O=S(=O)(c1c(F)c(F)c(F)c(F)c1F)N(CC#Cc1ccccc1)C1CC1 [Compound I-31]
log10 IC50: 3.18

compound: CN(Cc1ccc(F)cc1)S(=O)(=O)c1c(F)c(F)c(F)c(F)c1F [Compound I-58]
log10 IC50: 2.64

compound: O=S(=O)(c1c(F)c(F)c(F)c(F)c1F)N(Cc1c(F)cc(F)cc1F)C1CCC1 [Compound I-47]
log10 IC50: 3.06

compound: COc1ccc(CN(C2CC2)S(=O)(=O)c2c(F)c(F)c(F)c(F)c2F)cc1F [Compound I-17]
log10 IC50: 2.90

compound: CC(=O)N(Cc1ccc(F)cc1)S(=O)(=O)c1c(F)c(F)c(F)c(F)c1F [Compound I-4]
log10 IC50: 3.32

compound: CC(C)N(Cc1ccc(F)cc1)S(=O)(=O)c1c(F)c(F)c(F)c(F)c1F [Compound I-16]
log10 IC50: 3.08

compound: COc1ccc(CN(C2CC2)S(=O)(=O)c2c(F)c(F)c(F)c(F)c2F)cc1 [Compound I-8]
log10 IC50: 2.97

compound: O=S(=O)(c1c(F)c(F)c(F)c(F)c1F)N(Cc1c(F)cc(F)cc1F)C1CC1 [Compound I-36]
log10 IC50: 3.18

compound: O=S(=O)(c1c(F)c(F)c(F)c(F)c1F)N(Cc1ccc(F)cc1)c1ccccc1 [Compound I-53]
log10 IC50: 3.15

compound: O=S(=O)(c1c(F)c(F)c(F)c(F)c1F)N(Cc1ncccc1C(F)(F)F)C1CC1 [Compound I-43]
log10 IC50: 3.22

###

Each item that follows carries a reported IC50.
System: MV4-11
protocol: CellTiter-Blue cell viability, MV4-11
Assay type: cell-based
conditions_used: Homo sapiens, MV4-11; AML cell line, 72 hours
Description: The anti-cancer efficacy of exemplary compounds of the application were assessed in vitro against different cancer cell lines. […] Afterwards, the plates were shaken for 10 seconds and florescence was recorded at 560/590 nm using a Cytation 3 spectrophotometer. IC50 values were determined using non-linear regression analysis with GraphPad Prism 6.0 (GraphPad Software Inc.).

molecule: O=S(=O)(c1c(F)c(F)cc(F)c1F)N(Cc1ccc(F)cc1)C1CC1 [Comparative Example 8, reference compound]
IC50: > 12.5 µM
--
molecule: O=S(=O)(c1ccc(F)cc1)N(Cc1ccc(F)cc1)C1CC1 [Comparative Example 3, reference compound]
IC50: > 25 µM
--
molecule: O=S(=O)(c1ccccc1)N(Cc1ccc(F)cc1)C1CC1 [Comparative Example 2, reference compound]
IC50: ≥ 25 µM
